- ASSAYED TARGET: Octn2 (Organic cation/carnitine transporter 2) (Mus musculus, UniProt Q9Z0E8)
- Sequence (Q9Z0E8 whole entry): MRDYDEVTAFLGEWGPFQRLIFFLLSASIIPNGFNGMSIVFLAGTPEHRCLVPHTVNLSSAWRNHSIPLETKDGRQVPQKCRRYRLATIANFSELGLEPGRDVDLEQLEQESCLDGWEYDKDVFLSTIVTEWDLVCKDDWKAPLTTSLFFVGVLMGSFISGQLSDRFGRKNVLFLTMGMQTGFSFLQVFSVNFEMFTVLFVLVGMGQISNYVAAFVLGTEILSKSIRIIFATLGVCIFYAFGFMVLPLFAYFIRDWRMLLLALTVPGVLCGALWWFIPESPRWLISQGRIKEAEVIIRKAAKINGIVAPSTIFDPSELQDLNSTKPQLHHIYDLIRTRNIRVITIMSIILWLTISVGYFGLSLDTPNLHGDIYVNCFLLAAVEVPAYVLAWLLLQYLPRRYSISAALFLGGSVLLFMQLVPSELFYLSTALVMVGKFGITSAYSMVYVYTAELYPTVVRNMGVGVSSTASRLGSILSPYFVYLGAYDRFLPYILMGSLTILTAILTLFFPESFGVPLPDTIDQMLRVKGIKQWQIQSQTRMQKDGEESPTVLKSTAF
- ASSAY: in vitro
- REPORTED CONDITIONS: human, Octn2-HEK cells, probe carnitine
MEASURE NAME: activity at 500 µM
Write the numeric value and follow it with the unit.

Request: Write down the reported activity at 500 µM of C[N+](C)(C)CCO [CHOLINE] , test system: Octn2 (Organic cation/carnitine transporter 2) (Mus musculus, UniProt Q9Z0E8).
Result: 75%
